Test: Pharmacokinetic assay in tumor-bearing mice where HCT-116 cells were transplanted (Test Example 3)
Format: in vivo
Settings: female, BALB/cAnNCrlj-nu/nu, plasma; tumor-bearing nude mouse, oral single dose 60 mg/kg, 0.5% methylcellulose, 1 hour; read-out: Plasma concentrations after oral administration, 1 hour
parameter-measured: concentration at 1 h
Answer with the figure and its unit, nothing else.

May I ask what concentration at 1 h has been recorded for COc1ccc(C(=O)Nc2cn(Cc3cc(F)c(F)c(F)c3)cn2)cc1OC.Cl ?
13200 ng/mL

---

Recorded measurements of concentration at 6 h, one per entry
Test: Pharmacokinetic assay in tumor-bearing mice where HCT-116 cells were transplanted (Test Example 3)
Type: in vivo
Conditions: female, BALB/cAnNCrlj-nu/nu, plasma; tumor-bearing nude mouse, oral single dose 100 mg/kg, 20% Labrasol, 6 hours; read-out: Plasma concentrations after oral administration, 6 hours
Your answer should be a plain number; it is taken to be in µg/mL.

Please review the entries below; each comes with its answer.
N#Cc1ccc(/C=C/C(=O)Nc2cn(Cc3cccc(Cl)c3)cn2)cc1OCCO [Example 129] | 0.271
CC(=O)Nc1ccc(/C=C/C(=O)Nc2cn(Cc3cccc(OC(F)(F)F)c3)cn2)cc1 [Example 123] | 0.079
CC(=O)Nc1ccc(/C=C/C(=O)Nc2cn(Cc3cccc(C(F)(F)F)c3)cn2)cc1.Cl [Example 122] | 0.467

Continue with the next compound.
Requested field: concentration at 6 h. Item: COc1ccc(/C=C/C(=O)Nc2cn(Cc3cccc(C(F)(F)F)c3)cn2)cc1OCCO [Example 128]
0.644

---

Test system: HT-29 cells
Experiment: Inhibition test for sphere-forming ability of cancer cells (Test Example 1), HT-29
Type: cell-based, human
Details: 1 μmol/L, value with %
Decision: (100%-inhibition rate of cell proliferation) at 1 μmol/L, HT-29 compared against 40%; not below it gives true (1), below it gives false (0).

Answered examples (5):
COc1ccc(Cn2cnc(NC(=O)c3ccc(OC)c(OC)c3)c2)cc1 [Example 164] | true (1)
O=C(Nc1cn(Cc2cccc(C(F)(F)F)c2)cn1)c1ccc(=O)[nH]c1 [Example 199] | false (0)
CCCOc1ccc(C(=O)Nc2cn(Cc3cccc(Cl)c3)cn2)cn1 [Example 136] | true (1)
COc1ccc(C(=O)Nc2cn(Cc3ccc(Cl)s3)cn2)cc1OC [Example 173] | false (0)
COc1ccc(C(=O)Nc2cn(Cc3ccc(C(F)(F)F)o3)cn2)cc1OC [Example 171] | false (0)

State whether the measured (100%-inhibition rate of cell proliferation) at 1 μmol/L, HT-29 reaches 40%, counting equality as reaching it, for COc1ccc(C(=O)Nc2cn(Cc3ccc4c(c3)C(C)(C)CCC4(C)C)cn2)cc1OC [Example 172]
false (0)

Similarly, O=C(Nc1cn(Cc2cccc(C(F)(F)F)c2)cn1)c1ccc(F)nc1 [Example 226] ?
true (1)

Also CCCCOc1ccc(C(=O)Nc2cn(Cc3cccc(Cl)c3)cn2)cn1 [Example 135] ?
false (0)

Now the same for COc1ccc(C(=O)Nc2cn(Cc3cccc(Oc4ccccc4)c3)cn2)cc1OC [Example 297]
false (0)

Could you do the same for COc1ccc(C(=O)Nc2cn(Cc3c(F)ccc(C)c3F)cn2)cc1OC [Example 167] , please?
false (0)

Cited source: patent US10898469B2
